- Test system: Trichophyton rubrum
- Assay Method Text: Antifungal activity in vitro, resazurin growth inhibition screen: Trichophyton rubrum
- Format: cell-based
- Recorded Conditions: Trichophyton rubrum B68183; read-out: Inf. C pIC50 (converted)
Value Kind: IC50 (nM)

The examples below pair each entry with its known result.
molecule=Fc1cc(Cl)c2c(c1)-n1cccc1C(c1ccc3c(c1)CCC3(F)F)=NC2 study_system="Trichophyton rubrum" value_kind=IC50 unit_label=nM assay_result=447
molecule=Clc1cccc2c1-n1cccc1C(c1ccc3c(c1)CCCO3)=NC2 study_system="Trichophyton rubrum" value_kind=IC50 unit_label=nM assay_result=129
molecule="Cl.Clc1cccc2c1CNC(c1ccc3c(c1)CCC3)c1cccn1-2 (stereo not drawn)" study_system="Trichophyton rubrum" value_kind=IC50 unit_label=nM assay_result=138

P. Clc1ccc2c(c1Cl)CN=C(c1ccc3c(c1)CCO3)c1cccn1-2
Q. O=C1OCc2cc(C3=NCc4c(Cl)cccc4-n4cccc43)ccc21
R. FC1(F)CCc2cc(C3=NCc4c(Cl)cccc4-n4cccc43)ccc2O1
query: Could you please sort these 3 entries by IC50 from high to low? Put the labels in the requested order and write them down.
result: P, Q, R

1. Clc1cccc2c1CN=C(c1ccc3c(c1)CCCC3)c1cccn1-2
2. O=C1CCc2cc(C3=NCc4cccc(Cl)c4-n4cccc43)ccc21
query: Consider 1 and 2 . Which of these has its IC50 at a higher number? Returns: label corresponding to the selected item.
result: 2
(2: 1580 nM, 1: 170 nM)

----------
- Tested on: Trichophyton rubrum
- Assay Method Text: Antifungal activity in vitro, resazurin growth inhibition screen: Trichophyton rubrum
- Format: cell-based
- Recorded Conditions: Trichophyton rubrum B68183; read-out: Inf. C pIC50 (converted)
Value Kind: IC50 (nM)

The examples below pair each entry with its known result.
smiles_notation=Clc1cc(Cl)c2c(c1)-n1cccc1C(c1ccc3c(c1)CCO3)=NC2 assay_result=331
smiles_notation=Clc1cccc2c1CN=C(c1ccc3c(c1)CCC3)c1cccn1-2 assay_result=70.8
smiles_notation=Fc1cc(F)c2c(c1)-n1cccc1C(c1ccc3c(c1)CCC(F)(F)O3)=NC2 assay_result=32400
smiles_notation=O=C1CCCc2cc(C3=NCc4cccc(Cl)c4-n4cccc43)ccc21 assay_result=49000
smiles_notation=O=C1CCc2ccc(C3=NCc4c(Cl)cccc4-n4cccc43)cc21 assay_result=1950
smiles_notation=Clc1ccc(Cl)c2c1CN=C(c1ccc3c(c1)CCC3)c1cccn1-2 assay_result=3980

I. Cn1c(=O)oc2ccc(C3=NCc4c(Cl)cccc4-n4cccc43)cc21
II. O=C1OCc2ccc(C3=NCc4c(F)cccc4-n4cccc43)cc21
III. Clc1cccc2c1CN=C(c1ccc3c(c1)OCC3)c1cccn1-2
query: Endpoint returns the given compounds ordered by ascending IC50. Put the labels in the requested order and write them down.
result: III, I, II
(III: 132 nM, I: 1150 nM, II: 7410 nM)

----------
Parameter: Inf. E pIC50. Scope: all listed entries.
- Tested on: Aspergillus fumigatus
- Assay Method Text: Antifungal activity in vitro, resazurin growth inhibition screen: Aspergillus fumigatus
- Type: cell-based
- Recorded Conditions: Aspergillus fumigatus B42928

The examples below pair each entry with its known result.
molecule="Br.Clc1cccc2c1-n1cccc1C(c1ccc3c(c1)OCO3)NC2 (stereo not shown)" study_system="Aspergillus fumigatus" assay_result=<4.19
molecule="Cl.Clc1cccc2c1CNC(c1ccc3c(c1)CCO3)c1cccn1-2 (stereo not shown)" study_system="Aspergillus fumigatus" assay_result=4.85
molecule=Fc1cc(F)c2c(c1)-n1cccc1C(c1ccc3c(c1)CCCO3)=NC2 study_system="Aspergillus fumigatus" assay_result=4.49

query: I'd like to know its Inf. E pIC50. The molecule in question is `FC1(F)Oc2ccc(C3=NCc4c(Cl)cc(Cl)cc4-n4cccc43)cc2O1`
result: 5.71

query: // repeat for `Clc1ccc(Cl)c2c1CN=C(c1ccc3c(c1)OCC3)c1cccn1-2` and report
result: <4.19

query: // repeat for Br.CCOc1cc2c(cc1C1NCc3c(Cl)cccc3-n3cccc31)CCC2 (stereo not shown) and report
result: <4.19

query: // repeat for `CN1CCc2cc(C3=NCc4c(F)cccc4-n4cccc43)ccc21` and report
result: 4.39

query: // repeat for Cl.Clc1ccc2c(c1Cl)CNC(c1ccc3c(c1)CCC3)c1cccn1-2 (stereo not shown) and report
result: 4.67

query: // repeat for Br.Clc1ccc2c(c1)CNC(c1ccc3c(c1)OCO3)c1cccn1-2 (stereo not shown) and report
result: <4.19
